# Target desc: Cyp-A (Homo sapiens, UniProt P62937)
# Sequence (P62937 whole entry): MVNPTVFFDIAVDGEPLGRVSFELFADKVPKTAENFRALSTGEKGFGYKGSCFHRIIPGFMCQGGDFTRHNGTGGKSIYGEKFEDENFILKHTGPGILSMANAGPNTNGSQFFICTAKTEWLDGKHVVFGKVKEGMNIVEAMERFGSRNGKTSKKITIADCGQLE
# Assay details: PPIase activity, α-chymotrypsin-coupled enzymatic assay
# Assay type: biochemical
# Test conditions: 4° C., read-out: Kd determined by PPIase assay
Property: Kd (µM)
The response must be a number in µM with no trailing unit.

Could you share which Kd value was measured for CC(C)[C@H](NC(=O)OCc1ccccc1)C(=O)OC1=CC(=O)C(C)C(C)(C)C1 (stereo partly drawn) ?
20

Try "CC(C)[C@H](NC(=O)OCc1ccccc1)C(=O)OC1=CC(=O)CC(C)(C)C1" next.
23

Try CC1C(=O)CC(=O)CC1(C)C (racemic) next.
134
